Just for reference, patent US20090186878A1 is where these values come from.

- Procedure Summary: Solubility determination in water (HPLC-MS of saturated aqueous solutions)
- Assay type: physicochemical
- Experimental Conditions: in water, ambient temperature, after 24 hours, not at equilibrium; supernatant by HPLC-MS; LOD 10 ng/mL
Observation Type: Solubility (µg/mL)

[[record]]
compound = "CC(C)=CCC/C(C)=C/CC/C(C)=C/CN1C(=O)c2cccc(O)c2Nc2c(O)cc(O)cc21 [Form II (EtOH/water)]"
observed_measurement = 3.98


P: CC(C)=CCC/C(C)=C/CC/C(C)=C/CN1C(=O)c2cccc(O)c2Nc2c(O)cc(O)cc21 [Form I (MeOH/water)]
Q: CC(C)=CCC/C(C)=C/CC/C(C)=C/CN1C(=O)c2cccc(O)c2Nc2c(O)cc(O)cc21 [Form III (annealed Form I)]
[ask] Which numeric Solubility is bigger, that of P or that of Q ? Return value: the label identifying the chosen record.
[reply] P
